Origin of the recorded values: patent US20070249620A1

Form field: melting point (one value per entry).

[
  {
    "COMPOUND": "CCOc1ccccc1NC(=O)Nc1ccc(N2CCN(C(=O)Nc3ccccc3C)CC2)cc1",
    "melting point": "206 to 208 °C"
  },
  {
    "COMPOUND": "COc1ccc(C)cc1NC(=O)Nc1ccc(N2CCN(C(=O)Nc3cc(OCCO)ccc3Cl)CC2)cc1",
    "melting point": "121 to 124 °C"
  },
  {
    "COMPOUND": "COc1ccc(C)cc1NC(=O)Nc1ccc(N2CCN(C(=O)Nc3ccc(N)cc3Cl)CC2)cc1",
    "melting point": "226 to 228 °C"
  },
  {
    "COMPOUND": "O=C(Nc1ccc(N2CCN(C(=O)C(O)c3ccccc3Cl)CC2)nc1)Nc1ccccc1F (stereo not shown)",
    "melting point": "127 to 128 °C"
  },
  {
    "COMPOUND": "COc1ccc(C)cc1NC(=O)Nc1ccc(N2CCN(C(=O)Nc3c(C)cccc3N)CC2)cc1",
    "melting point": "198 to 199 °C"
  },
  {
    "COMPOUND": "COc1ccccc1NC(=O)Nc1ccc(N2CCN(C(=O)Nc3ccc(OCCO)cc3Cl)CC2)cc1",
    "melting point": "134 to 136 °C"
  },
  {
    "COMPOUND": "COc1ccccc1NC(=O)Nc1ccc(N2CCN(C(=O)Nc3ccc(OCCO)cc3C(F)(F)F)CC2)cc1",
    "melting point": "118 to 120 °C"
  },
  {
    "COMPOUND": "O=C(Nc1ccc2c(c1)CCN(C(=O)Nc1ccc(OCC(O)CO)cc1Cl)C2)Nc1ccccc1F (stereo not shown)",
    "melting point": "164 to 167 °C"
  },
  {
    "COMPOUND": "Cc1cccc(Cl)c1NC(=O)N1CCN(c2ccc(NC(=O)Nc3cc(C(F)(F)F)ccc3F)cc2)CC1",
    "melting point": "228 to 230 °C"
  },
  {
    "COMPOUND": "CCOc1ccc(F)cc1NC(=O)Nc1ccc(N2CCN(C(=O)Nc3c(C)cccc3C)CC2)cc1",
    "melting point": "205 to 206 °C"
  },
  {
    "COMPOUND": "COc1ccc(C)cc1NC(=O)Nc1ccc(N2CCN(C(=O)Nc3ccccc3C(F)(F)F)CC2)cc1",
    "melting point": "170 to 171 °C"
  },
  {
    "COMPOUND": "COc1ccc(C)cc1NC(=O)Nc1ccc2c(c1)C=CN(C(=O)Nc1c(C)cccc1Cl)C2",
    "melting point": "216 to 218 °C"
  },
  {
    "COMPOUND": "COc1ccc(F)cc1NC(=O)Nc1ccc(N2CCN(C(=O)Nc3c(C)cccc3C)CC2)cc1",
    "melting point": "226 to 228 °C"
  },
  {
    "COMPOUND": "CCOc1cccc(NC(=O)Nc2ccc(N3CCN(C(=O)Nc4ccc(OCCO)cc4C(F)(F)F)CC3)cc2)c1",
    "melting point": "108 to 110 °C"
  },
  {
    "COMPOUND": "COc1ccc(C)cc1NC(=O)Nc1ccc(N2CCN(C(=O)Nc3ccc(OCCO)cc3C(F)(F)F)CC2)c(C#N)c1",
    "melting point": "135 to 137 °C"
  },
  {
    "COMPOUND": "CC(C)(C)OC(=O)N1CCN(c2ccc(NC(=O)Nc3cc(Cl)ccc3N)cc2)CC1",
    "melting point": "187 to 189 °C"
  }
]
